Assay: chemical genetic growth profiling, strain panel (AID 1159580);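 note: tested at 20 µM; growth read once vehicle control cultures reached saturation at 30 °C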
Conditions: S. cerevisiae deletion strains, growth OD, locus YNL250W, strain rad50, stronger effect = lower value
Among all 5,500 compounds or so, about 2,000 (36%) were called active. Inconclusive results (about 18%) are left out. The list shows a part of the results.
Classify: rule met when normalized growth is strictly less than 1; rule not met when normalized growth is not.

Example entries and their recorded answers appear below.
compound	label
CN(N=O)C(=O)N[C@@H]1[C@@H](O)[C@H](O)[C@@H](CO)O[C@@H]1O	rule not met
Clc1ccc(Cl)cc1	rule met
COc1cc2cc[n+]3cc4c(OC)c(OC)ccc4cc3c2cc1OC	rule met
ClC(Cl)=C(c1ccc(Cl)cc1)c1ccc(Cl)cc1	rule met
COc1cccc(-c2cc(=O)c3ccc(OC)cc3o2)c1	rule met

Query: Bench note: check whether CC1(C)O[C@@H]2CC3C4C[C@H](F)C5=CC(=O)C=C[C@]5(C)[C@@]4(F)[C@@H](O)C[C@]3(C)[C@]2(C(=O)CO)O1 (some centres undefined) shows normalized growth below 1
Result: rule not met
